# ASSAY_REMARKS: recombinant UMI read abundance after kanamycin selection (control-corrected) (log10(CPM+1)); higher = more efficient recombination; extreme values may be limits of the assay; sequences stand for … in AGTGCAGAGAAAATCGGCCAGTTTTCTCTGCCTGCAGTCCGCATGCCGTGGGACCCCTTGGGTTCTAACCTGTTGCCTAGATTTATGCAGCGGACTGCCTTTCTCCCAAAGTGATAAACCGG…AGGTTGGTTTCACT; site = the 11-nt donor;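 also: IS621 bridge recombinase in Escherichia coli cells against a fixed T5 target plasmid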
So I've got a bunch of sequences here, and I need their recombinant UMI read abundance (log10) values.
Numbers only.

INSERT INTO assay_data (sequence_entry, numeric_result) VALUES
  ('TGTACACCATGGACCGGTTTTCCCGGTAATCCGTATTTGCC (site TGTACACCTGT)', 0);

// input: 4 sequences below; output: recombinant UMI read abundance (log10) for each
1. CTCCACACATGGACCGGTTTTCCCGGTAATCCGTATTTGTA (site CGCCACACTTA)
2. GTAGTACCATGGACCGGTTTTCCCGGTAATCCGTATTTGAC (site GTAGTACCTGT)
3. GTAAGCCCATGGACCGGTTTTCCCGGTAATCCGTATTTGTC (site GTAAGCCCTGA)
4. AATTATTCATGGACCGGTTTTCCCGGTAATCCGTATTTGGA (site AATTATGCTTC)

1. 0.289
2. 0
3. 1.98
4. 0.0186

All values here come from the supplement of paper PMC11208160.
